method notes: Human HepG2 cell viability assay in 384 well format
Type: toxicity, cell-based
Set-up: dose 125 nL, time 70.5 hour; concentration not given beside the values
assay setup: HepG2 cells, read-out: Inhibition
Items are presented alongside their recorded cytotoxicity at 70.5 h.

>  <molecule>
O=C1N(Cc2cccc(F)c2)CCC12CCCN(c1ncc(F)cn1)C2 (stereo not drawn)

>  <cytotoxicity at 70.5 h>
-5.64%

$$$$
>  <molecule>
O=C(CCCNc1ncccn1)Nc1cc(C(F)(F)F)c[nH]c1=O

>  <cytotoxicity at 70.5 h>
-2.93%

$$$$
>  <molecule>
CO[C@H]1CN(C(C)C)C[C@@H]1NC(=O)Nc1cccc(SC)c1

>  <cytotoxicity at 70.5 h>
49.1%

$$$$
>  <molecule>
NS(=O)(=O)CCCC(=O)N1CCC2(CC1)c1ccccc1CC2O (stereo not drawn)

>  <cytotoxicity at 70.5 h>
-4.4%

$$$$
>  <molecule>
CCOc1cc(CNc2nnn(C)n2)ccc1OCc1ccc(Cl)cc1

>  <cytotoxicity at 70.5 h>
-10.2%

$$$$
>  <molecule>
COc1ccccc1Cc1cncc(N2CC(C(=O)O)C2)n1

>  <cytotoxicity at 70.5 h>
-13.5%

$$$$
>  <molecule>
CC(C)S(=O)(=O)N1CCCC(c2nnc(Cn3ccnc3)n2C)C1 (stereo not drawn)

>  <cytotoxicity at 70.5 h>
-7.74%

$$$$
>  <molecule>
Cc1cccc2[nH]c(C3CCN(C(=O)c4cccnn4)CC3)nc12

>  <cytotoxicity at 70.5 h>
16.6%

$$$$
>  <molecule>
CCC(C)NC(=O)Cn1c(Nc2cc(C)cc(C)c2)nc(C)cc1=O (stereo not drawn)

>  <cytotoxicity at 70.5 h>
0.214%

$$$$
>  <molecule>
CC(=O)N1CCOC2(CCCN(Cc3ccc(Cl)c(C(F)(F)F)c3)C2)C1 (stereo not drawn)

>  <cytotoxicity at 70.5 h>
-1.77%

$$$$
>  <molecule>
CCc1ncc(-c2cn(CCSc3ncn[nH]3)nn2)cn1

>  <cytotoxicity at 70.5 h>
-11.1%

$$$$
>  <molecule>
CN1CCCC(c2n[nH]c3ncccc23)C1 (stereo not drawn)

>  <cytotoxicity at 70.5 h>
-11.4%

$$$$
>  <molecule>
O=C(CCCc1ccccn1)N1CCCC1c1noc(C2CC2)n1 (stereo not drawn)

>  <cytotoxicity at 70.5 h>
-9.72%

$$$$
>  <molecule>
CCn1ncc2c1CCCC2NCC1=Cc2ccccc2OC1 (stereo not drawn)

>  <cytotoxicity at 70.5 h>
-12.8%

$$$$
>  <molecule>
CC(C)(C)n1nc(C2CC2)cc1C(=O)NC1CCN(CC(N)=O)CC1

>  <cytotoxicity at 70.5 h>
-12.3%

$$$$
>  <molecule>
Cc1nnc(-c2cccc(N3CCC(NC4CCSC4)CC3)c2)s1 (stereo not drawn)

>  <cytotoxicity at 70.5 h>
4.71%

$$$$
>  <molecule>
Oc1cc(CN2CCCCC2c2cccnc2)nc2c(F)cccc12 (stereo not drawn)

>  <cytotoxicity at 70.5 h>
-2.95%

$$$$
>  <molecule>
CCN(CC)CC1CN(Cc2c(C)noc2C)Cc2nccn2C1 (stereo not drawn)

>  <cytotoxicity at 70.5 h>
-4.28%

$$$$

* * *

method notes: Human HepG2 cell viability assay in 384 well format
Assay type: toxicity, cell-based
Design: dose 125 nL, time 70.5 hour; concentration not given beside the values
assay setup: HepG2 cells, read-out: Inhibition
Measured cytotoxicity at 70.5 h, listed per entry for reference.
observation type: cytotoxicity at 70.5 h (%)

>  <compound>
Cc1cc(C)c(CNC(=O)N2CCCC2c2cccn2C)c(=O)[nH]1 (stereo not given)

>  <observation type>
cytotoxicity at 70.5 h

>  <recorded number>
5.45

$$$$
>  <compound>
Cn1ccnc1SCCNc1ccnc(C(F)(F)F)n1

>  <observation type>
cytotoxicity at 70.5 h

>  <recorded number>
-2.76

$$$$
>  <compound>
c1cncc(COCc2n[nH]c3c2CN(Cc2ccco2)C3)c1

>  <observation type>
cytotoxicity at 70.5 h

>  <recorded number>
-1.5

$$$$
>  <compound>
O=C(Cc1ccccn1)N1CCN2C[C@H](OCCN3CCCC3)C[C@H]2C1

>  <observation type>
cytotoxicity at 70.5 h

>  <recorded number>
19.7

$$$$
>  <compound>
COCCCNS(=O)(=O)c1ccc(N2CCCCS2(=O)=O)cc1

>  <observation type>
cytotoxicity at 70.5 h

>  <recorded number>
-9.62

$$$$
>  <compound>
CNc1cc(N2CCCC2CNCc2c[nH]nc2C(C)(C)C)ncn1 (stereo not given)

>  <observation type>
cytotoxicity at 70.5 h

>  <recorded number>
0.0673

$$$$
>  <compound>
Cn1cncc1CNC1CC2(CCN(S(C)(=O)=O)CC2)c2ccccc21 (stereo not given)

>  <observation type>
cytotoxicity at 70.5 h

>  <recorded number>
-2.27

$$$$
>  <compound>
CS(=O)(=O)c1ncc(CN2CCCC(C(N)=O)C2)n1CC1CCCCC1 (stereo not given)

>  <observation type>
cytotoxicity at 70.5 h

>  <recorded number>
-1.8

$$$$
>  <compound>
CN(C)CCN1C(=O)CCC12CCCN(C(=O)C1CC=CC1)CC2 (stereo not given)

>  <observation type>
cytotoxicity at 70.5 h

>  <recorded number>
-1.28

$$$$
>  <compound>
CC1CCCCN1CCNC(=O)c1ccn(-c2cccc(F)c2)n1 (stereo not given)

>  <observation type>
cytotoxicity at 70.5 h

>  <recorded number>
-0.176

$$$$
